B1: CHMP4C (parent)
chain: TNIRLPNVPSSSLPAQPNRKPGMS

# Variants of: B1
# measurement.notes: protein stability index of a GFP-peptide fusion (GPS, HEK-293T) (PSI 1-6); higher = more stable;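 also: lentivirally expressed fusions sorted by FACS into six bins by GFP to DsRed ratio, PSI derived from sequencing read proportions per bin multiplied by bin number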
# experimental.conditions: c terminus: a fixed tail appended

# variant.identifier, protein stability index
rows = [
    ("A15C", 4.54),
    ("N2P", 5.25),
    ("L13W", 4.45),
    ("R4D", 4.34),
    ("K20T", 3.92),
    ("S10Y", 4.22),
    ("L13H", 4.25),
    ("I3C", 4.55),
    ("R4H", 4.06),
    ("I3M", 4.76),
    ("N18C", 3.97),
    ("Q16K", 4.03),
    ("S11C", 4.86),
    ("P21F", 4.32),
    ("V8E", 5.14),
    ("P9E", 4.94),
    ("P17N", 4.72),
    ("P21E", 4.5),
    ("A15I", 4.34),
    ("S10H", 4.76),
    ("V8L", 4.4),
    ("S24I", 4.27),
    ("A15Q", 5.06),
    ("S10N", 3.58),
    ("M23V", 4.82),
    ("R4K", 3.88),
    ("V8P", 5.05),
    ("P21G", 4.31),
    ("N18S", 4.21),
    ("V8C", 3.99),
    ("N2H", 4.51),
    ("R19S", 4.71),
    ("N7R", 4.41),
    ("Q16P", 4.94),
    ("M23E", 5.61),
    ("R4E", 4.68),
    ("G22E", 4.68),
    ("S11D", 4.94),
    ("N7Y", 4.13),
    ("S12V", 4.8),
    ("N7D", 4.49),
    ("R4F", 4.18),
    ("P6T", 3.75),
    ("A15M", 4.16),
    ("I3R", 4.41),
    ("G22S", 4.08),
]
